- assay.comment: Selectivity ratio of IC50 for human GES-1 cells to IC50 for human MGC803 cells
- Type: toxicity
- details: GES-1 cells versus MGC803 cells, read-out: Ratio IC50
quantity: selectivity ratio

sample_smiles=Fc1nc(Cl)c2ncn(Cc3cn(-c4ccnc5ccccc45)nn3)c2n1 quantity="selectivity ratio" val=10.7
sample_smiles=C[C@]12CCC(=O)C[C@@H]1CC[C@@H]1[C@@H]2CC[C@]2(C)C(=O)[C@@H](n3cc(Cn4cnc5c(Cl)nc(Cl)nc54)nn3)C[C@@H]12 quantity="selectivity ratio" val=1.2
sample_smiles=O=c1cc(-n2cc(Cn3cnc4c(Cl)nc(Cl)nc43)nn2)c2ccccc2o1 quantity="selectivity ratio" val=3.4
sample_smiles=O=c1cc(-n2cc(Cn3cnc4c(Cl)nc(F)nc43)nn2)c2ccccc2o1 quantity="selectivity ratio" val=2
